# reported Activity; entries follow
Tested on: Rattus norvegicus
TEST: Ex vivo receptor occupancy of PDE10A in Sprague-Dawley rat brain at 10 mg/kg, po after 1 hr using [3H]-AMG7980
Format: functional
Give the quantity in %, number only.

Look over these answered cases.
[
  {
    "STRUCTURE": "COc1nc2cccnc2n1-c1ccc(Nc2ccc(C)cn2)cc1",
    "UOM": "%",
    "ASSAY_VALUE": 36
  },
  {
    "STRUCTURE": "COc1nc2cccnc2n1[C@H]1C[C@@H](Nc2nc3ccccc3s2)C1",
    "UOM": "%",
    "ASSAY_VALUE": 68
  },
  {
    "STRUCTURE": "COc1nc2cccnc2n1[C@H]1C[C@H](Nc2nc3ccccc3s2)C1",
    "UOM": "%",
    "ASSAY_VALUE": 74
  }
]

Short answer for "Cc1ccc(Nc2ccc(-n3c(C4CC4)nc4cccnc43)cc2)nc1" : Activity was 67

Short answer for "COc1nc2cccnc2n1-c1ccc(Nc2nc3ccccc3s2)cc1" : Activity was 55

====

TEST: Clearance in Sprague-Dawley rat at 10 mg/kg, po
Type: ADME, organism-based
Set-up: dose 10 mg/kg, route oral
PROTOCOL_CONDITIONS: in vivo
Cut-off 10 mL/min/kg on CL/F: below means class 1, at or above means class 0.

// below: answered compounds
[
  {
    "STRUCTURE": "Cc1ccc(Nc2ccc(-n3c(C4CC4)nc4cccnc43)cc2)nc1",
    "QUALITATIVE_LABEL": "class 0"
  },
  {
    "STRUCTURE": "COc1nc2cccnc2n1[C@H]1C[C@H](Nc2nc3ccccc3s2)C1",
    "QUALITATIVE_LABEL": "class 1"
  },
  {
    "STRUCTURE": "COc1nc2cccnc2n1[C@H]1C[C@@H](Nc2nc3ccccc3s2)C1",
    "QUALITATIVE_LABEL": "class 0"
  },
  {
    "STRUCTURE": "COc1nc2cccnc2n1-c1ccc(Nc2ccc(C)cn2)cc1",
    "QUALITATIVE_LABEL": "class 0"
  }
]

*Q* Just wondering, is CL/F of "COc1nc2cccnc2n1-c1ccc(Nc2nc3ccccc3s2)cc1" below 10 mL/min/kg?
*A* class 0

====

TEST: Intrinsic clearance in human liver microsomes at 1 uM after 30 mins in presence of NADPH by LC-MS/MS analysis
Type: ADME
PROTOCOL_CONDITIONS: read-out: CLH
# reported microsomal CLint at 1 µM; entries follow
Give the quantity in µL/min/mg, number only.

Look over these answered cases.
[
  {
    "STRUCTURE": "COc1nc2cccnc2n1[C@H]1C[C@H](Nc2nc3ccccc3s2)C1",
    "UOM": "µL/min/mg",
    "microsomal CLint at 1 µM": 82
  },
  {
    "STRUCTURE": "COc1nc2cccnc2n1-c1ccc(Nc2nc3ccccc3s2)cc1",
    "UOM": "µL/min/mg",
    "microsomal CLint at 1 µM": 65
  },
  {
    "STRUCTURE": "COc1nc2cccnc2n1-c1ccc(Nc2ccc3ccccc3n2)cc1",
    "UOM": "µL/min/mg",
    "microsomal CLint at 1 µM": 57
  },
  {
    "STRUCTURE": "COc1nc2cccnc2n1-c1ccc(C(=O)c2nc3ccccc3[nH]2)cc1",
    "UOM": "µL/min/mg",
    "microsomal CLint at 1 µM": 56
  },
  {
    "STRUCTURE": "COc1nc2cccnc2n1-c1ccc(Nc2ccc(C)cn2)cc1",
    "UOM": "µL/min/mg",
    "microsomal CLint at 1 µM": 34
  }
]

Moving on to the next molecule.
Short answer for "COc1nc2cccnc2n1-c1ccc(Nc2nc3ccccc3[nH]2)cc1" : microsomal CLint at 1 µM was 24

Where these numbers come from: ChEMBL document CHEMBL3286165
